- target_system: pooled human IgG (human IgG1,2,3 and 4)
outcome_measure: Enzyme Activity Endpoint Assay (purified): Fc

{"columns": ["protein", "observed_value"],
 "data": [
  ["PRT-371 (protein) MSQTEDSESLQRLRDIEDFQAEKKKQNVVYTKWLDGVDVKDHDFRKIVDGNSAYYATPLLNGRGFYDINKDFNRDNDKCAAAVAANMFHYWLDRNRDNVDRFLRQNPEKHGIIELPDGQLKLSDFLNTYESDDGYRDKSKLFDFISENFNGPVWTDKLLDNYINGYAYNYKYGRTIEDSTKNTSKINFFKEVFNEKILTNNHSIRNQNEFSVLLIEALYTGKAIGLSYGPAGLRHSLGHIISVWGADLDADGNVVAIYVTDSDDKKLTIGDERVGLKRYKISTDDEGRLRLTAYEETHNTGGQIRGLWTLDTGKQAWADYFDKTEQTGTDQAEQ", "373 ng/µL"]
]}

Data origin, for the record: patent US20250027068
